B1: WSB1 (parent)
chain: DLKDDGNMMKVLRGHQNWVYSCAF

- Variants of: B1
- assay protocol: protein stability index of a GFP-peptide fusion (GPS, HEK-293T) (PSI 1-6); higher = more stable;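 further: lentivirally expressed fusions sorted by FACS into six bins by GFP to DsRed ratio, PSI derived from sequencing read proportions per bin multiplied by bin number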
- reported conditions: c terminus: a fixed tail appended
quantity kind: protein stability index

{"primary sequence": "DLKDDGNMMKVLRGHQNTVYSCAF", "reading": 2.08}
{"primary sequence": "DLKDDGNMMKNLRGHQNWVYSCAF", "reading": 1.57}
{"primary sequence": "DYKDDGNMMKVLRGHQNWVYSCAF", "reading": 1.93}
{"primary sequence": "DLKDDGNMMKVLRGHQNWVYSCVF", "reading": 1.71}
{"primary sequence": "DLKDDGNMMKVLRGHQNWVGSCAF", "reading": 1.97}
{"primary sequence": "DLKDDGNMMKVLRGHQNWVYSCAR", "reading": 2.33}
{"primary sequence": "DHKDDGNMMKVLRGHQNWVYSCAF", "reading": 1.68}
{"primary sequence": "DLKDDGNMMHVLRGHQNWVYSCAF", "reading": 1.96}
{"primary sequence": "DLKDDGNMMKVLRGHQNWVYSCAE", "reading": 1.82}
{"primary sequence": "NLKDDGNMMKVLRGHQNWVYSCAF", "reading": 2.02}
{"primary sequence": "DLKDDGNMMKVLRGGQNWVYSCAF", "reading": 4.54}
